Data credit: ChEMBL document CHEMBL1121521

Exercise: state measured Degree of resistance for each of the molecules provided.
Target: DNA polymerase III PolC-type (Bacillus subtilis (strain 168)) (UniProt P13267)
Sequence (P13267 whole entry): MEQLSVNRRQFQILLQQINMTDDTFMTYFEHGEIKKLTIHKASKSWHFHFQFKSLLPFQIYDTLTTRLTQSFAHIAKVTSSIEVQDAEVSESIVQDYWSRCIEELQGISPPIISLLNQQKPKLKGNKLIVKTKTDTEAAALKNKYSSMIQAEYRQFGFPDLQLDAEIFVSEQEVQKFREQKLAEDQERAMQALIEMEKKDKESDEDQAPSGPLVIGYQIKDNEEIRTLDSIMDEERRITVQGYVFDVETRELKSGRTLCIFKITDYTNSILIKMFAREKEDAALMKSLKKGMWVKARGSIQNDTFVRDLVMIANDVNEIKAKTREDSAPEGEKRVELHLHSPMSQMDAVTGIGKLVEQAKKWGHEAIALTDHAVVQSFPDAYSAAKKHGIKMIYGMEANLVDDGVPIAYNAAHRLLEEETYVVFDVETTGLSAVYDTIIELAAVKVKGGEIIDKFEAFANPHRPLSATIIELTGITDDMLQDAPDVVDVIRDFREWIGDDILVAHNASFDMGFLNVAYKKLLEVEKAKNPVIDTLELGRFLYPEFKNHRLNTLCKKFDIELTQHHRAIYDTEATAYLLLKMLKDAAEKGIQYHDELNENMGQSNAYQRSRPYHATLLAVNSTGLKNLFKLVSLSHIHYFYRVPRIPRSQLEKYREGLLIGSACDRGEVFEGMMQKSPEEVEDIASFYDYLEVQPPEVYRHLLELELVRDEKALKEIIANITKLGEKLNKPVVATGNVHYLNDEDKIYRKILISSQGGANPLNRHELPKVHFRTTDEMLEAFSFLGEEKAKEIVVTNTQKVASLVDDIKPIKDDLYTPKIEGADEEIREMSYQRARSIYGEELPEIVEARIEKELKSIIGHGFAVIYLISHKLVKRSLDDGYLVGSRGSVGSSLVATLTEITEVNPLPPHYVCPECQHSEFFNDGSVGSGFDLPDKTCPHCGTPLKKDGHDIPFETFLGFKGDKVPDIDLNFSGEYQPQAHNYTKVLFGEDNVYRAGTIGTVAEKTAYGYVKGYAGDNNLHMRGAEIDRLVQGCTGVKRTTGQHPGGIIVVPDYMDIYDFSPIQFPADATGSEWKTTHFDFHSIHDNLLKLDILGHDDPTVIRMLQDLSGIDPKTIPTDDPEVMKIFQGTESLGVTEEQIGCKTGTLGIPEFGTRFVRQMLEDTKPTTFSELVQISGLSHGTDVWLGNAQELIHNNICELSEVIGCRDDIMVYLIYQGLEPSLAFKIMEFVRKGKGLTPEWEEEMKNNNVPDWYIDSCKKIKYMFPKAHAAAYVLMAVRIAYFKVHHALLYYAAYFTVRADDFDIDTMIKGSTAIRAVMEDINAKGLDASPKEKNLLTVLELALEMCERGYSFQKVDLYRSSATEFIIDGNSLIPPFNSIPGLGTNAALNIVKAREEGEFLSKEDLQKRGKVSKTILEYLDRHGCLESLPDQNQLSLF
Assay: Degree of resistance is the ratio between inhibition of Bacillus subtilis DNA Polymerase III azp-12 and WT.
Numbers only.

Here is how some molecules turned out for Degree of resistance.
INSERT INTO results (chemical_structure, numeric_result) VALUES
  ('Oc1cc(Nc2cccc(I)c2)nc(O)n1', 4.3),
  ('OCc1ccc(Nc2cc(O)nc(O)n2)cc1', 0.6),
  ('Oc1cc(Nc2cccc(Cl)c2)nc(O)n1', 1.7),
  ('CC(C)c1ccc(Nc2cc(O)nc(O)n2)cc1', 0.065),
  ('CCCc1ccc(Nc2cc(O)nc(O)n2)cc1', 0.12);

For each of the molecules below, note its Degree of resistance.
1. O=c1cc(Nc2ccc(Cl)cc2)[nH]c(=O)[nH]1
2. Cc1ccc(Nc2cc(O)nc(O)n2)cc1C
3. OCc1cccc(Nc2cc(O)nc(O)n2)c1

[0.56, 3.9, 12.4]

Item Cc1cc(Nc2cc(O)nc(O)n2)ccc1Br with DNA polymerase III PolC-type (Bacillus subtilis (strain 168)) (UniProt P13267) - Degree of resistance? 0.85

----------
Exercise: state measured Ki for each of the molecules provided.
Biological target: DNA polymerase III PolC-type (Bacillus subtilis (strain 168), UniProt P13267)
Sequence (P13267 whole entry): as above
Experiment: Inhibition against Bacillus subtilis DNA polymerase III (wild type)
Give bare numbers, in µM.

INSERT INTO assay_data (chemical_structure, target_system, unit_label, numeric_result) VALUES
  ('Oc1cc(Nc2cccc(Br)c2)nc(O)n1', 'DNA polymerase III PolC-type (Bacillus subtilis (strain 168), UniProt P13267)', 'µM', 10.3),
  ('CC(C)CCNc1cc(=O)[nH]c(=O)[nH]1', 'DNA polymerase III PolC-type (Bacillus subtilis (strain 168), UniProt P13267)', 'µM', 2400),
  ('Cc1ccc(Nc2cc(=O)[nH]c(=O)[nH]2)cc1I', 'DNA polymerase III PolC-type (Bacillus subtilis (strain 168), UniProt P13267)', 'µM', 0.38),
  ('CC(=O)Nc1ccc(Nc2cc(=O)[nH]c(=O)[nH]2)cc1C', 'DNA polymerase III PolC-type (Bacillus subtilis (strain 168), UniProt P13267)', 'µM', 464);

For each of the molecules below, note its Ki.
1. Oc1cc(Nc2cccc(Cl)c2)nc(O)n1
2. O=c1cc(Nc2ccc(C(F)(F)F)cc2)[nH]c(=O)[nH]1
3. CC(=O)Nc1cc(Nc2cc(O)nc(O)n2)ccc1C

[25, 101, 460]
